target: c-Src SH2; experiment: SH2 binding enrichment of the phosphorylated peptide, bacterial display (enrichment ratio); higher = better substrate or ligand; peptides without Tyr show the background
We use 0.4 as the dividing line for SH2 binding enrichment: on or above the line is y, below is n.

{"sequence_record": "IVKAFYVRARA [AIPL1_Y268_YF]", "class_name": "y"}
{"sequence_record": "LRGVIYVILRK [PMP22_Y153_S149R]", "class_name": "n"}
{"sequence_record": "SGETKYNPTEA [NBEAL2_Y2748_E2747K]", "class_name": "y"}
{"sequence_record": "QNVADYMRYLM [RPL5_Y207]", "class_name": "y"}
{"sequence_record": "TGTQLYGRFGS [ITGA2B_Y384]", "class_name": "y"}
{"sequence_record": "AVRVFYRKCPH [EPHB2_Y194_R199H]", "class_name": "y"}
{"sequence_record": "PLDGEYFTLHI [TP53_Y327_Q331H]", "class_name": "n"}

----------
Each record here notes measured SH2 binding enrichment.
target: c-Src SH2; assay: SH2 binding enrichment of the phosphorylated peptide, bacterial display (enrichment ratio); higher = better substrate or ligand; peptides without Tyr show the background;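 note: peptide library displayed on the E. coli surface as eCPX fusions, selected cells deep-sequenced, score is each peptide's frequency after selection divided by its frequency in the input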
attribute_measured: SH2 binding enrichment

{"sequence_record": "NGTVTYAIVAG [CDH23_Y1672]", "measured": 1.24}
{"sequence_record": "KGERGYPGTLG [COL4A1_Y348_P352L]", "measured": 0.421}
{"sequence_record": "TTGGFYSYGGG [KRT24_Y120_A115T]", "measured": 0.945}
{"sequence_record": "YRDALYKSMVD [PHEX_Y250_F252S]", "measured": 0.457}
{"sequence_record": "LDAFIYDAALL [GRIN2A_Y730_V734L]", "measured": 0.581}
{"sequence_record": "KYWREYILSLE [GPC3_Y299]", "measured": 1.37}
{"sequence_record": "ILTLKYLIEHG [ACTG1_Y69_P70L]", "measured": 0.88}
{"sequence_record": "VAMELYVFGGV [GAN_Y471]", "measured": 0.395}
{"sequence_record": "EKLQKYFRKNP [EHHADH_Y682_Q685K_YF]", "measured": 0.549}
{"sequence_record": "SSPMKYQQNVS [EGFEM1P_Y160]", "measured": 0.432}
{"sequence_record": "YNDSTYNQQLI [ZPLD1_Y198]", "measured": 0.568}
{"sequence_record": "HKETGYVVERP [BCLAF1_Y466_L461H]", "measured": 0.394}
{"sequence_record": "KASGKYYAMKI [AKT3_Y173]", "measured": 1.45}
{"sequence_record": "GTTIHYNYMCN [TP53_Y234_C229G]", "measured": 1.56}
{"sequence_record": "AKKIKYFEGVS [PRKDC_Y682]", "measured": 0.479}

----------
test system: Fer (mouse); assay: phosphorylation enrichment, bacterial display (enrichment ratio); higher = better substrate or ligand; peptides without Tyr show the background;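 note: 11-residue human phosphosite peptides and single-mutation variants displayed on the E. coli surface, counted by deep sequencing, each peptide's frequency after selection divided by its frequency in the unselected input library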;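 note: frequency after pTyr selection over input frequency; kinase dosed for 20-30% of maximal phosphorylation in three min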
Each record here notes measured phosphorylation enrichment.
attribute_measured: phosphorylation enrichment

{"sequence_record": "METKGYQSLPE [NR3C2_Y6_H7Q]", "target_of_assay": "Fer (mouse)", "measured": 0.448}
{"sequence_record": "RRSKMYLKTRS [LPL_Y329_S325R]", "target_of_assay": "Fer (mouse)", "measured": 0.514}
{"sequence_record": "IHETTYNSIMK [ACTA1_Y281]", "target_of_assay": "Fer (mouse)", "measured": 0.414}
{"sequence_record": "ERQIRYLNHQL [CEP152_Y268]", "target_of_assay": "Fer (mouse)", "measured": 0.347}
{"sequence_record": "SLAARYYNWVC [FLT4_Y1230_S1235C]", "target_of_assay": "Fer (mouse)", "measured": 0.777}
{"sequence_record": "FFRKFYNKSED [RYR1_Y4864]", "target_of_assay": "Fer (mouse)", "measured": 0.353}
{"sequence_record": "WQQQSYLDFGI [CTNNB1_Y30_S33F]", "target_of_assay": "Fer (mouse)", "measured": 0.39}
